conditions: in ethanol, 283.14 K
Result type: solubility (mole fraction)

Can you look up the measured solubility (mole fraction) of `CC(C)(Oc1ccc(CCNC(=O)c2ccc(Cl)cc2)cc1)C(=O)O` for me?
0.00258

* * *

details: in ethyl acetate, 313.17 K
Result type: solubility (mole fraction)
Could you keep your reply to the number by itself?

Can you look up the measured solubility (mole fraction) of `CC(C)(Oc1ccc(CCNC(=O)c2ccc(Cl)cc2)cc1)C(=O)O` for me?
0.00178

* * *

details: in n-butanol, 318.16 K
Result type: solubility (mole fraction)

Can you look up the measured solubility (mole fraction) of `CC(C)(Oc1ccc(CCNC(=O)c2ccc(Cl)cc2)cc1)C(=O)O` for me?
0.00881
